tested.on: human NTCP (Homo sapiens)
procedure.summary: Screening taurocholate uptake assay (96-well, [14C]taurocholate, 10 µM drug)
test.parameters: Prestwick library screen, 10 µM drug; B-score of taurocholate uptake
Measured B-score functional assay accompanies every entry in the list below.

- chemical.structure: "Cc1cn([C@H]2C=C[C@@H](CO)O2)c(=O)[nH]c1=O"
  B-score functional assay: 0.865
- chemical.structure: "C#C[C@]1(O)CC[C@H]2[C@@H]3[C@H](C)CC4=C(CCC(=O)C4)[C@H]3CC[C@@]21C"
  B-score functional assay: 0.613
- chemical.structure: "CCOc1ccc(NC(C)=O)cc1"
  B-score functional assay: 0.074

----------
tested.on: human NTCP (Homo sapiens)
procedure.summary: Screening taurocholate uptake assay (96-well, [14C]taurocholate, 10 µM drug)
test.parameters: combined ranking from functional and binding assay B-scores
Counter-ions that a name gives are not always drawn.
Ranking score below 1000 gives Not satisfied; Ranking score at or above it gives Satisfied.

- compound: "NS(=O)(=O)c1cc2c(cc1Cl)NC(C(Cl)Cl)NS2(=O)=O (stereo not shown) [Trichlormethiazide]"
  class.name: "Not satisfied"
- compound: "CC1CC(OC(=O)C(O)c2ccccc2)CC(C)(C)N1C (stereo not shown) [Eucatropine hydrochloride]"
  class.name: "Not satisfied"
- compound: "NCC[C@H](O)C(=O)N[C@@H]1C[C@H](N)[C@@H](O[C@H]2O[C@H](CN)[C@@H](O)[C@H](O)[C@H]2O)[C@H](O)[C@H]1O[C@H]1O[C@H](CO)[C@@H](O)[C@H](N)[C@H]1O [Amikacin hydrate]"
  class.name: "Satisfied"
- compound: "C[C@H]1[C@H](NC(=O)/C(=N\\OC(C)(C)C(=O)O)c2csc(N)n2)C(=O)N1S(=O)(=O)O"
  class.name: "Satisfied"
- compound: "Cc1c(OCC(F)(F)F)ccnc1C[S+]([O-])c1nc2ccccc2[nH]1 (stereo not shown)"
  class.name: "Not satisfied"
- compound: "CCN(CC)CCNC(C(=O)OCCC(C)C)c1ccccc1.Cl.Cl (stereo not shown) [Camylofine chlorhydrate]"
  class.name: "Not satisfied"
- compound: "CN1C(C)(C)CCCC1(C)C [Pempidine tartrate]"
  class.name: "Satisfied"
- compound: "COc1ncnc(NS(=O)(=O)c2ccc(N)cc2)c1OC"
  class.name: "Not satisfied"
- compound: "CCCCNc1cc(C(=O)O)cc(S(N)(=O)=O)c1Oc1ccccc1 [Bumetanide]"
  class.name: "Not satisfied"

----------
tested.on: human NTCP (Homo sapiens)
procedure.summary: Screening taurocholate uptake assay (96-well, [14C]taurocholate, 10 µM drug)
test.parameters: screening taurocholate uptake, 10 µM drug; B-score
Structures can show the parent of a compound that is named as a salt.
reported.property: B-score functional assay

- compound: "CC(=O)Oc1ccccc1C(=O)O [Acetylsalicylic acid]"
  result: 2.017
- compound: "CC1CCc2c(N3CCC(O)CC3)c(F)cc3c(=O)c(C(=O)O)cn1c23 (centres unmarked) [Nadifloxacin]"
  result: 3.94
- compound: "CN1CCN(c2c(F)cc3c(=O)c(C(=O)O)cn(CCF)c3c2F)CC1 [Fleroxacin]"
  result: 1.693
- compound: "C[N+]1(C)CCC(=C(c2ccccc2)c2ccccc2)CC1 [Diphemanil methylsulfate]"
  result: 2.82
- compound: "CCCCOc1cc(C(=O)NCCN(CC)CC)c2ccccc2n1 [Dibucaine]"
  result: 1.579
- compound: "CS(=O)(=O)O.O=C(O[C@H]1C[C@H]2CC3C[C@@H](C1)N2CC3=O)c1c[nH]c2ccccc12 [Dolasetron mesilate]"
  result: 1.844
- compound: "C=CCc1ccccc1OCC(O)CNC(C)C (centres unmarked) [Alprenolol hydrochloride]"
  result: 2.549
- compound: "NC(N)=NCc1cccc(I)c1.NC(N)=NCc1cccc(I)c1.O=S(=O)(O)O [Iobenguane sulfate]"
  result: 1.016

----------
Reported B-score functional assay by item:
tested.on: human NTCP (Homo sapiens, UniProt Q14973)
procedure.summary: Screening taurocholate uptake assay (96-well, [14C]taurocholate, 10 µM drug)
test.parameters: Prestwick library screen, taurocholate uptake, 10 µM drug
Structures can show the parent of a compound that is named as a salt.

- molecule: "CCCCc1oc2ccccc2c1C(=O)c1cc(I)c(OCCN(CC)CC)c(I)c1 [Amiodarone hydrochloride]"
  B-score functional assay: 0.027
- molecule: "CN[C@@H]1C[C@@H](c2ccc(Cl)c(Cl)c2)c2ccccc21 [Indatraline hydrochloride]"
  B-score functional assay: 0.152
- molecule: "CCN1CCN(c2cc3c(cc2F)c(=O)c(C(=O)O)cn3C2CC2)CC1"
  B-score functional assay: 0.028
- molecule: "COc1cc(N)c(Cl)cc1C(=O)NC1CCN(Cc2ccccc2)CC1 [Clebopride maleate]"
  B-score functional assay: 0.453
- molecule: "COC(=O)[C@H]1[C@H]2C[C@@H]3c4[nH]c5cc(OC)ccc5c4CCN3C[C@H]2C[C@@H](OC(=O)c2cc(OC)c(OC)c(OC)c2)[C@@H]1OC"
  B-score functional assay: 0.519
- molecule: "CN(C)[C@@H]1C(O)=C(C(N)=O)C(=O)[C@@]2(O)C(O)=C3C(=O)c4c(O)ccc(Cl)c4[C@@](C)(O)[C@H]3C[C@@H]12 [Chlortetracycline hydrochloride]"
  B-score functional assay: -0.045
- molecule: "Nc1nnc(-c2cccc(Cl)c2Cl)c(N)n1"
  B-score functional assay: 0.153
- molecule: "NC(=O)N1c2ccccc2CC(=O)c2ccccc21 [Oxcarbazepine]"
  B-score functional assay: 0.032
- molecule: "COc1cc(NS(=O)(=O)c2ccc(N)cc2)ncn1"
  B-score functional assay: -0.097
- molecule: "CO[C@@]1(NC(=O)C2SC(=C(C(N)=O)C(=O)O)S2)C(=O)N2C(C(=O)O)=C(CSc3nnnn3C)CS[C@@H]21 (some centres unmarked)"
  B-score functional assay: 4.862
- molecule: "CCC1NC(=O)c2cc(S(N)(=O)=O)c(Cl)cc2N1 (centres unmarked)"
  B-score functional assay: 1.708
- molecule: "C[C@@]12N[C@@H](Cc3ccccc31)c1ccccc12.O=C(O)/C=C\\C(=O)O [(-)-MK 801 hydrogen maleate]"
  B-score functional assay: -0.004
- molecule: "COc1ccc(C[C@@H](C)NC[C@H](O)c2ccc(O)c(NC=O)c2)cc1.COc1ccc(C[C@@H](C)NC[C@H](O)c2ccc(O)c(NC=O)c2)cc1.O=C(O)/C=C/C(=O)O [Formoterol fumarate]"
  B-score functional assay: 1.513
- molecule: "C#CCN(C)Cc1ccccc1 [Pargyline hydrochloride]"
  B-score functional assay: -0.107
- molecule: "CC(C)NC[C@@H](O)COc1ccc(CC(N)=O)cc1 [(R)-(+)-Atenolol]"
  B-score functional assay: 0.006
- molecule: "O=C(O)COCCN1CCN(C(c2ccccc2)c2ccc(Cl)cc2)CC1 (centres unmarked) [Cetirizine dihydrochloride]"
  B-score functional assay: 0.907
- molecule: "CCCc1nn(C)c2c(=O)[nH]c(-c3cc(S(=O)(=O)N4CCN(C)CC4)ccc3OCC)nc12"
  B-score functional assay: 0.011
- molecule: "CC12CC3CC(C)(C1)CC(N)(C3)C2 [Memantine Hydrochloride]"
  B-score functional assay: 1.46
- molecule: "CCN(CC)CC#CCOC(=O)C(O)(c1ccccc1)C1CCCCC1 (centres unmarked) [Oxybutynin chloride]"
  B-score functional assay: 0.163
- molecule: "Cn1c(=O)c2c(ncn2CCO)n(C)c1=O"
  B-score functional assay: 0.319
- molecule: "CNC(=O)c1c(I)c(C(=O)NCC(=O)Nc2c(I)c(C(=O)O)c(I)c(C(=O)NCCO)c2I)c(I)c(N(C)C(C)=O)c1I"
  B-score functional assay: -0.19
- molecule: "NCc1ccc(S(N)(=O)=O)cc1 [Mafenide hydrochloride]"
  B-score functional assay: 0.341
- molecule: "CN1CCN2c3ccccc3Cc3ccccc3C2C1.Cl (centres unmarked) [Mianserine hydrochloride]"
  B-score functional assay: 0.041

----------
Reported B-score binding assay values are given for each entry in this list.
tested.on: human NTCP (Homo sapiens)
Sequence (Q14973 1-349): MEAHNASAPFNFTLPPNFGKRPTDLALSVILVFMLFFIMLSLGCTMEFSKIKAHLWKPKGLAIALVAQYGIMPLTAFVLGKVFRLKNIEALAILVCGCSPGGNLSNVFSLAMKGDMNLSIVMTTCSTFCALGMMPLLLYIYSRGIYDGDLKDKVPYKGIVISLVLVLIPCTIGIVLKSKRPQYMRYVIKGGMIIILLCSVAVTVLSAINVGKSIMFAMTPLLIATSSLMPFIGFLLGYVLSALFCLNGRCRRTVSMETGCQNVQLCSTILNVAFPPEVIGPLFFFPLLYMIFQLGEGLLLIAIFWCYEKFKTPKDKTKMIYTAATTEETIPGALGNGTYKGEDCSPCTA
procedure.summary: Screening fluorescent competitive Myrcludex B-FITC binding assay (96-well, 10 µM drug)
test.parameters: screen, 10 µM drug, Myrcludex B-FITC binding
Counter-ions that a name gives are not always drawn.
reported.property: B-score binding assay

- compound: "CCc1c(C)[nH]c2c1C(=O)C(CN1CCOCC1)CC2 (stereo not shown) [Molindone hydrochloride]"
  result: 0.009
- compound: "CC(C)[C@H]1CC[C@H](C(=O)N[C@H](Cc2ccccc2)C(=O)O)CC1 [Nateglinide]"
  result: 0.322
- compound: "CC(=O)O[C@]1(C(C)=O)CC[C@H]2[C@@H]3C=C(C)C4=CC(=O)CC[C@@H]4[C@H]3CC[C@@]21C [Nomegestrol acetate]"
  result: 1.174
- compound: "CC1(C)O[C@@H]2C[C@H]3[C@@H]4C[C@H](F)C5=CC(=O)CC[C@]5(C)[C@H]4[C@@H](O)C[C@]3(C)[C@]2(C(=O)CO)O1 [Flurandrenolide]"
  result: -0.083
- compound: "C[C@]12CC[C@H](O)C[C@H]1CC[C@@H]1[C@@H]2CC[C@]2(C)[C@@H](C3=CC(=O)OC3)CC[C@]12O [Digitoxigenin]"
  result: 1.274
- compound: "COC(=O)C1=C(C)NC(C)=C(C(=O)OCCN(C)Cc2ccccc2)C1c1cccc([N+](=O)[O-])c1 (stereo not shown) [Nicardipine hydrochloride]"
  result: -1.032
- compound: "C[C@]12C[C@H](O)[C@H]3[C@@H](CCC4=CC(=O)CC[C@@]43C)[C@@H]1CC[C@@H]2C(=O)CO [Corticosterone]"
  result: -1.468
- compound: "Nc1ccc(S(=O)(=O)Nc2ccccn2)cc1 [Sulfapyridine]"
  result: -1.889
- compound: "COc1c(N2C[C@@H]3CCCN[C@@H]3C2)c(F)cc2c(=O)c(C(=O)O)cn(C3CC3)c12 [Moxifloxacin]"
  result: -1.402
- compound: "CC(C)C[C@H]1C(=O)N2CCC[C@H]2[C@]2(O)O[C@](NC(=O)[C@@H]3C=C4c5cccc6[nH]c(Br)c(c56)C[C@H]4N(C)C3)(C(C)C)C(=O)N12.CS(=O)(=O)O [Bromocryptine mesylate]"
  result: -0.252
- compound: "COC(=O)Nc1nc2ccc(C(=O)c3cccs3)cc2[nH]1 [Nocodazole]"
  result: 0.497
- compound: "CC(C)c1c(CN(C)C(C)Cc2ccccc2)n(C)n(-c2ccccc2)c1=O (stereo not shown) [Famprofazone]"
  result: -0.284
- compound: "Cn1c(=O)c2[nH]cnc2n(C)c1=O [Theophylline monohydrate]"
  result: 0.205
